Recorded Kd by entry
# testedTarget: rOTP82 (UniProt Q9LN01 41-741)
# Sequence (Q9LN01 41-741): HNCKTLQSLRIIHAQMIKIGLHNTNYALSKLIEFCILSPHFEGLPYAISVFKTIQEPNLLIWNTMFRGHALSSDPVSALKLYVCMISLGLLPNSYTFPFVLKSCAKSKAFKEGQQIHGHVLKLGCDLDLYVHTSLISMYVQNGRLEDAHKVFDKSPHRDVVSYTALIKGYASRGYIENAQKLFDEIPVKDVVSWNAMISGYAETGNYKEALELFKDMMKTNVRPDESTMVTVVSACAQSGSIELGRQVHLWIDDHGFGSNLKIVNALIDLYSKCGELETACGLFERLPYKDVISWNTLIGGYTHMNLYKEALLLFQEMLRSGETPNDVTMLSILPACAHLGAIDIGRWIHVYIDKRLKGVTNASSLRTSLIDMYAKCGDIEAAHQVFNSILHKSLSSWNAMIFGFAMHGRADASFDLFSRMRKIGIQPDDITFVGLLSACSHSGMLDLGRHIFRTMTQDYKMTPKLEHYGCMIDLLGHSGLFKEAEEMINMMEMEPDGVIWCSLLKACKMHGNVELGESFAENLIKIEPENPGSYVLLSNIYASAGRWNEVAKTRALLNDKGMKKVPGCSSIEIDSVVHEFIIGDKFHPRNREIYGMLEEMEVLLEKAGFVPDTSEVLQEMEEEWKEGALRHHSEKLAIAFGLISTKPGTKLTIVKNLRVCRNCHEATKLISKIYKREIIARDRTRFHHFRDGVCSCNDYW
# procedureSummary: EMSA
Please state the figure in nM; there is no need to write the unit.

UAGUUUUUCUGGGAUC (ssRNA) [ndhG1S]: 12.2
UUUUUCUGGGAUC (ssRNA) [ndhG1S2]: 167

Entry under test: CUGCUUCAGCUUC (ssRNA) [ndhB9S2] . Its Kd was 119

Looking up UAGCUGCUUCAGCUUC (ssRNA) [ndhB9S] , I found its Kd recorded as 9.7
